- assay.target: Bet BRD4 full length bromo-domain protein (Homo sapiens, UniProt O60885)
- assay: Bet bromodomain TR-FRET assay (displacement of acetyl histone peptide)
- Format: binding
- condition.info: Bet BRD4 full length bromodomain protein, 300 nM acetyl histone peptide substrate, read-out: IC50
pIC50: −log10 of the molar value.
metric: pIC50

In [3]: df
Out[3]:
                                   compound  endpoint_result
0  COc1cc(F)ccc1S(=O)(=O)Nc1cc(Cc2ccccc2)c2c(c1)C1(CCC1)C(=O)N2 [Compound 94]           > 6.22
1  CCN(C)CCOc1cc(NS(=O)(=O)c2ccccc2OC)cc2c1NC(=O)C21CCC1 [compound 196]           > 6.22
2  O=C1Nc2c(-c3ccc4nc[nH]c4c3)cc(NS(=O)(=O)c3ccc(F)cc3F)cc2C12CCC2 [Compound 8]     6.00 to 6.22
3  O=C1Nc2c(Nc3ccncc3)cc(NS(=O)(=O)c3ccc(F)cc3F)cc2C12CCC2 [Compound 62]           < 6.00
4  COc1ccc(-c2cc(NS(=O)(=O)c3ccc(F)cc3F)cc3c2NC(=O)C32CCC2)cn1 [Compound 3]     6.00 to 6.22

// below: pIC50 requested for another compound
Problem: # get_value(readout='pIC50', item= CN1CCC(NC(=O)c2cc(N(C)S(=O)(=O)c3ccc(F)cc3F)cc3c2NC(=O)C32CCC2)CC1 [Compound 72] )
Result: < 6.00
